- Tested on: Staphylococcus aureus
- Test name: Antibacterial activity against Staphylococcus aureus ATCC 25923 assessed as reduction in bacterial growth incubated for 18 to 24 hrs by broth microdilution method
- Format: functional
- Condition summary: time 18-24 hrs
Peptide text beside a SMILES is read from it.
Measurement type: MIC (µM)
Numbers only, in µM.

Compound	System under test	Value unit	MIC
CC[C@H](C)[C@H](NC(=O)[C@H](CCCNC(=N)N)NC(=O)[C@H](CCCCN)NC(=O)[C@H](CC(C)C)NC(=O)[C@H](CC(C)C)NC(=O)CN)C(=O)N[C@@H](C)C(=O)N[C@H](C(=O)N[C@@H](CC(C)C)C(=O)N[C@@H](CC(C)C)C(N)=O)[C@@H](C)O (H-GLLKRIATLL-NH2)	Staphylococcus aureus	µM	10.1

The compound listed as CC[C@H](C)[C@H](NC(=O)[C@H](CCCNC(=N)N)NC(=O)[C@H](CCCCN)NC(=O)[C@H](CC(C)C)NC(=O)[C@H](CC(C)C)NC(=O)CN)C(=O)N[C@@H](CCCCN)C(=O)N[C@@H](C)C(=O)N[C@@H](CC(C)C)C(=O)N[C@@H](CC(C)C)C(N)=O (H-GLLKRIKALL-NH2) has a reported MIC of 7.1
